protocol: Microsomal stability (rat)
Type: in vitro ADME
experimental context: rat microsomes, Table 1, read-out: Microsomal Stability (rat) T1/2
attribute measured: half-life

For orientation, consider the following solved cases.
CCCCOC(=O)/N=c1\n(C)c2cnc3ccc(-c4ccc(Cl)cc4)cc3c2n1-c1cc(C#N)ccc1C [Compound 89] :: 6.2 min
Cc1ccc(C#N)cc1-n1/c(=N/C(N)=O)n(C)c2cnc3ccc(-c4ccc(F)cc4)cc3c21 [Compound 55] :: > 30 min
Cc1ccc(C#N)cc1-n1/c(=N/S(N)(=O)=O)n(C)c2cnc3ccc(-c4cccc(F)c4)cc3c21 [Compound 116] :: 17.9 min
Cc1ccc(C#N)cc1-n1/c(=N/C(=O)OC(C)(C)C)n(C)c2cnc3ccc(-c4ccc(Cl)cc4)cc3c21 [Compound 88] :: > 30 min
Cn1c(=N)n(-c2ccc(C(=O)NC3CC3)cc2)c2c3cc(-c4ccc(Cl)cc4)ccc3ncc21 [Compound 65] :: > 30 min

As a next step, examine the compound that follows.
Challenge: half-life lookup needed for CCc1ccc(C#N)cc1-n1c(=N)n(C)c2cnc3ccc(-c4ccc(Cl)cc4)cc3c21 [Compound 7] , thanks.
Response given: > 30 min

# credit: patent US20210188843A1
